Measured IC50, listed per entry for reference.
Biological target: CutC from Proteus mirabilis (Proteus mirabilis, UniProt B4EYG1)
Sequence (B4EYG1 entry or part of it): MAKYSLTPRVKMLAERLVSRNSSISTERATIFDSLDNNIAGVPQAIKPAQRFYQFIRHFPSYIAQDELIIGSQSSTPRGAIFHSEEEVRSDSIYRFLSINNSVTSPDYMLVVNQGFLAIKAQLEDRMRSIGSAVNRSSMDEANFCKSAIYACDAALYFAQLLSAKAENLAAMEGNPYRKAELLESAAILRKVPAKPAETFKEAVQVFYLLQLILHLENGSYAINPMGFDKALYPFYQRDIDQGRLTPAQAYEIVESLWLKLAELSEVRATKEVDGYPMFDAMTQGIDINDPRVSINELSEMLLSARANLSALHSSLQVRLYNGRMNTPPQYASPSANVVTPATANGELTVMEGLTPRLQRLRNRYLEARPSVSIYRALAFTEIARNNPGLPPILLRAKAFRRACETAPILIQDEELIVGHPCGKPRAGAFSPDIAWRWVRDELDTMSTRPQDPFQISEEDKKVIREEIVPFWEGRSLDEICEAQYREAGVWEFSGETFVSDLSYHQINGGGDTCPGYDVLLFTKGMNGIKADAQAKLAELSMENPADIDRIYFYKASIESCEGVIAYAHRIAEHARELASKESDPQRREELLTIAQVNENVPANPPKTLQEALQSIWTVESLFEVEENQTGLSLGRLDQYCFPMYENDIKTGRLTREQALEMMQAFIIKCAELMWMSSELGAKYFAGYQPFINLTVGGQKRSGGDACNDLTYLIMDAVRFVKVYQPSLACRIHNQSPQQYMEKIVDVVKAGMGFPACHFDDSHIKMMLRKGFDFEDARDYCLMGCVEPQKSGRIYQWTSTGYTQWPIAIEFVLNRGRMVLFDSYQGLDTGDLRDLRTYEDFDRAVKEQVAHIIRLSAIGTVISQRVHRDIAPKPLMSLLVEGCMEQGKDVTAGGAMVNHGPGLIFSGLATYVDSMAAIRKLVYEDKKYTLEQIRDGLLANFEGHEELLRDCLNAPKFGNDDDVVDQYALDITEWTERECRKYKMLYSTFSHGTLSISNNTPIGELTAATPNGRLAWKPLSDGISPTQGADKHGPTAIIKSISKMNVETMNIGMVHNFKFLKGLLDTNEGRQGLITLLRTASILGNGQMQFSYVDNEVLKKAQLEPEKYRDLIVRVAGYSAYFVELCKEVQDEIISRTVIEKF
Sequence (B4EYG0 entry or part of it, further chain): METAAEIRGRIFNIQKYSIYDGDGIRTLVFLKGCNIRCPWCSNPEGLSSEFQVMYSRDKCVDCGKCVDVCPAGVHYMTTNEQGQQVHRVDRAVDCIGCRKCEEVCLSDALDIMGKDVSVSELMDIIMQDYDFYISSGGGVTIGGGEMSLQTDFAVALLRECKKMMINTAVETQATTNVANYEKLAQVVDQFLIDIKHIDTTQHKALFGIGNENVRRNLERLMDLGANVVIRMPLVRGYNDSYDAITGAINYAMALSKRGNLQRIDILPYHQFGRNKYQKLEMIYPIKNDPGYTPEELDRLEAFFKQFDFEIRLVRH
Experiment: Cell-based assay for TMA production from a native producer (P. mirabilis)
Details: d9-TMA from 1 mM d9-choline, 5 h, 37° C.; value 10 given when no fit or % TMA remaining at 10 μM higher than 15%; read-out: Average IC50 Whole cell P. mirabilis
Structures can show the parent of a compound that is named as a salt.

# count of solved cases: 5
* C[N+](C)(C)CC#CCO [Compound 132] | ≥ 10 µM
* C#CC[N+](C)(C)CCO[C@@H]1CO[C@H]2[C@@H]1OC[C@@H]2O [Compound 72, trifluoroacetate] | ≥ 10 µM
* C#CC[N+](C)(C)CC(=O)O[C@H]1CO[C@H]2[C@@H]1OC[C@H]2O.O=C([O-])C(F)(F)F [Compound 70, trifluoroacetate] | ≥ 10 µM
* C#CC[N+]1(CF)CCC[C@H]1CO (stereo partly shown) [Compound 205] | 8.3 µM
* C[N+](C)(C)CCNC=O [Compound 128] | ≥ 10 µM

For the next question, use this compound.
Field IC50 (CutC from Proteus mirabilis (Proteus mirabilis, UniProt B4EYG1)), entry C[N+]1(C)CCOC(O)(C(F)(F)F)C1 (stereo not shown) [Compound 218, trifluoroacetate] : > 10 µM

----------
Biological target: CutC from Clostridium sporogenes (Clostridium sporogenes)
Sequence (A0ABD6RTF0 entry or part of it): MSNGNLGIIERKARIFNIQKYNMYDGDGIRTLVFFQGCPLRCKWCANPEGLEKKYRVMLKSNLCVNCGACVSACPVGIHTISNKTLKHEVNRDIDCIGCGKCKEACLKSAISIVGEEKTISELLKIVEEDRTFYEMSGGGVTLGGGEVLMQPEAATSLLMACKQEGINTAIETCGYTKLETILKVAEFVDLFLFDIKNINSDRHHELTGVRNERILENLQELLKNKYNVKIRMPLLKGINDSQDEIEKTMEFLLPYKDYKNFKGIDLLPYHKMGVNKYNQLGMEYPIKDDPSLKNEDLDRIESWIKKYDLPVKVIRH
Sequence (A0AAE4Z0A8 entry or part of it): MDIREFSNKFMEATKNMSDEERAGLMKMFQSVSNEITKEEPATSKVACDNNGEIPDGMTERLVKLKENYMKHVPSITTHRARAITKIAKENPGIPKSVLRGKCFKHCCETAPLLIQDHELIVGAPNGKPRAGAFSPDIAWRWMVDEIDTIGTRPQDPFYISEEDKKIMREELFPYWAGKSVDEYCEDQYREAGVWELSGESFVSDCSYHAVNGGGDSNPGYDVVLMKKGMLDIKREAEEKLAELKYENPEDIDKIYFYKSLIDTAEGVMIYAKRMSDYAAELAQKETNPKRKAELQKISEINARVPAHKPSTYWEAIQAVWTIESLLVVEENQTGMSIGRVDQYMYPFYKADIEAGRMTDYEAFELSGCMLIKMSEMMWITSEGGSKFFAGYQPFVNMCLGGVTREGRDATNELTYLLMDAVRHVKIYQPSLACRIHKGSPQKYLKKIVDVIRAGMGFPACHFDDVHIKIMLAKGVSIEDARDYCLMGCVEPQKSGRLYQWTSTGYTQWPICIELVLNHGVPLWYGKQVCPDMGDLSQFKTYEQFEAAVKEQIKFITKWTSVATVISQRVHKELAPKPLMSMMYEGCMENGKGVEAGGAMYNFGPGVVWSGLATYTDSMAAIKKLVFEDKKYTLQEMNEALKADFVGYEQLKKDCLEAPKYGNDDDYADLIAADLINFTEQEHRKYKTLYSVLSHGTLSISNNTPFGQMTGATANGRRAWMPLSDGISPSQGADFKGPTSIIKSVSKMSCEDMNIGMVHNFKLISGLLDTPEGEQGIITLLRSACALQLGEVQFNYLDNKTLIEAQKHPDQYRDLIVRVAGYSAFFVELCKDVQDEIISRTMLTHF
Assay: Cell-based assay for TMA production from a native producer (C. sporogenes)
Conditions: read-out: IC50 Whole cell C. sporogenes; d9-TMA from 1 mM d9-choline, 5 h, 37° C.; run once; value 10 given when no fit or % TMA remaining at 10 μM higher than 15%
Measured IC50, listed per entry for reference.

C[N+](C)(C)CCCC(=O)O [Compound 127] yielded IC50 of ≥ 10 µM

----------
Type: in vitro ADME
Conditions: 1 µM
Structures can show the parent of a compound that is named as a salt.
Assay 3- Colonic Material Stability Assay % Remaining at 24 hr vs 40%: less than gives Yes; not less than gives No.

Field: example entries. Status: answers known.
* Br.C#CC[N+](C)(C)CC(=O)O[C@@H]1CO[C@H]2[C@@H]1OC[C@@H]2O [Compound 73] | No
* CC(=O)OC[C@H]1O[C@@H](OCC[N+](C)(C)C2CC2)[C@H](OC(C)=O)[C@@H](OC(C)=O)[C@@H]1OC(C)=O.[I-] [Compound 80] | Yes
* C#CC[N+](C)(C)CC(=O)O[C@@H]1O[C@H](COC(C)=O)[C@@H](OC(C)=O)[C@H](OC(C)=O)[C@H]1OC(C)=O [Compound 303, Trifluoroacetate] | Yes
* C#CC[N+](C)(C)CCO[C@H]1CO[C@H]2[C@@H]1OC[C@H]2O [Compound 74, trifluoroacetate] | No
* C#CC[N+](C)(C)CC(=O)O[C@H]1CO[C@H]2[C@@H]1OC[C@H]2O.O=C([O-])C(F)(F)F [Compound 70] | No

Prompt: Answer whether the molecule C#CC[N+](C)(C)CCO[C@@H]1CO[C@H]2[C@@H]1OC[C@@H]2O [Compound 72, trifluoroacetate] has Assay 3- Colonic Material Stability Assay % Remaining at 24 hr strictly less than 40%
Response: No

Prompt: Answer whether the molecule C#CC[N+](C)(C)CCO[C@@H]1OC[C@@H](OC(C)=O)[C@H](OC(C)=O)[C@H]1OC(C)=O.[I-] [Compound 8] has Assay 3- Colonic Material Stability Assay % Remaining at 24 hr strictly less than 40%
Response: Yes

----------
Biological target: UniProtKB B4EYG1
Experiment: Cell-based assay for TMA production from a native producer (P. mirabilis)
Conditions: d9-TMA from 1 mM d9-choline, 5 h, 37° C.; value 10 given when no fit or % TMA remaining at 10 μM higher than 15%; read-out: Average IC50 Whole cell P. mirabilis
Where a name gives a salt, the structure may show the parent alone.
Assay Metric: IC50

• C#CC[N+](C)(C)CC(=C)F [Compound 209, 2,2,2-trifluoroacetate] = 6.8 µM
• C#CC[N+](C)(C)CCCB(O)O [Compound 222] = > 10 µM

C#CC[N+](C)(C)CCCCC(=O)O [Compound A51] yielded IC50 of 1.1 µM

C#CC[N+](C)(C)CCCO [Compound 138, Trifluoroacetate] yielded IC50 of 1.05 µM

C#CC[N+](C)(C)CC1OC1C (stereo not shown) [Compound 181] yielded IC50 of > 10 µM

----------
Tested on: CutC/D enzyme
Experiment: Acute mouse model (plasma TMAO on choline diet)
Format: in vivo, male C57BL/6 mice
Details: Table 4d, 100 mg/kg oral gavage days 1-3, plasma 20 h after last gavage
Assay Metric: Mean plasma TMAO
Reply with a number, then the unit it belongs to.

# count of solved cases: 3
- C#CC[N+](C)(C)CCOC1OC[C@@H](OC(C)=O)[C@@H](OC(C)=O)[C@H]1OC(C)=O.[Br-] (stereo partly shown) [Compound 9]: 33.91 µM
- C#CC[N+](C)(C)CCO[C@@H]1OC[C@H](OC(C)=O)[C@H](OC(C)=O)[C@H]1OC(C)=O.[I-] [Compound 10]: 14.9 µM
- C#CC[N+](C)(C)CCO[C@@H]1OC[C@@H](OC(C)=O)[C@H](OC(C)=O)[C@H]1OC(C)=O.[I-] [Compound 8]: 12.5 µM

For the next question, use this compound.
Field Mean plasma TMAO (CutC/D enzyme), entry C#CC[N+](C)(C)CCO.[Br-] [Compound J60] : 6.00 µM

----------
Target: CutC from Proteus mirabilis (Proteus mirabilis, UniProt B4EYG1)
Test: Cell-based assay for TMA production from a native producer (P. mirabilis)
Conditions: d9-TMA from 1 mM d9-choline, 5 h, 37° C.; value 10 given when no fit or % TMA remaining at 10 μM higher than 15%; read-out: Average IC50 Whole cell P. mirabilis
Assay Metric: log10(IC50) (log10 of the value in nM)
// units: nM (pre-log); metric: IC50; scale: log10

# count of solved cases: 4
- C#CC[N+](C)(C)CC [Compound 206]: 1.84
- C#CC[N+](C)(C)CF [Compound 179]: 2.04
- C#CC[N+](C)(C)C[C@H](C)C(=O)OC [Compound 175]: 2.23
- C#CC[N+](C)(C)CCCC(=O)O [Compound 144]: 2.76

Field log10(IC50) (CutC from Proteus mirabilis (Proteus mirabilis, UniProt B4EYG1)), entry C#CC[N+]1(C)CC[C@@H](O)C1 (some centres unmarked) [Compound 113] : 2.85

Field log10(IC50) (CutC from Proteus mirabilis (Proteus mirabilis, UniProt B4EYG1)), entry C#CC[N+](C)(C)Cc1ncno1 [Compound 224] : 2.35

Field log10(IC50) (CutC from Proteus mirabilis (Proteus mirabilis, UniProt B4EYG1)), entry C=CC[N+](C)(C)CCO [Compound 182] : 3.50

----------
Experiment: in vivo
Set-up: species or system Sprague-Dawley rats
Conditions: Sprague-Dawley, rat, po, 10 mg/kg
Cmax vs 100 nM: less than gives class 1; not less than gives class 0.

* CC(=O)OCC1OC(OCC[N+](C)(C)CCl)C(OC(C)=O)C(OC(C)=O)C1OC(C)=O.[I-] (stereo in doubt) [Compound 78] | class 0
* C[N+](C)(CF)CCO[C@@H]1O[C@H](CO)[C@@H](O)[C@H](O)[C@H]1O.[Cl-] [Compound 98] | class 0
* C#CC[N+](C)(C)CCO[C@@H]1O[C@H](COC(C)=O)[C@@H](OC(C)=O)[C@H](OC(C)=O)[C@H]1OC(C)=O.[I-] [Compound 7] | class 1
* CC(=O)OC[C@@H]1O[C@H](OCC[N+](C)(C)CF)[C@@H](OC(C)=O)[C@H](OC(C)=O)[C@H]1OC(C)=O (stereo in doubt) [Compound 79] | class 1

Prompt: Answer whether the molecule CC(=O)OCC1OC(OCC[N+](C)(C)CF)C(OC(C)=O)C(OC(C)=O)C1OC(C)=O.[I-] (stereo in doubt) [Compound 79] has Cmax strictly less than 100 nM
Response: class 0

----------
Target: CutC from Proteus mirabilis (Proteus mirabilis, UniProt B4EYG1)
Assay: Cell-based assay for TMA production from a native producer (P. mirabilis)
Details: d9-TMA from 1 mM d9-choline, 5 h, 37° C.; value 10 given when no fit or % TMA remaining at 10 μM higher than 15%; read-out: Average IC50 Whole cell P. mirabilis
Measured pIC50, listed per entry for reference.
pIC50 (log units): -log10 of the concentration in mol/L.

* C[N+](C)(CCO)C(F)F | 5.86
* CC[N+](C)(CF)CCO (centres unmarked) | 6.74

For the next question, use this compound.
C#CC[N+](C)(C)Cc1nnn[nH]1 yielded pIC50 of 5.12

----------
Measured Papp B→A at 2 h, 1 µM, listed per entry for reference.
Assay: Caco-2 permeability assay
Type: in vitro ADME
Details: human, pH 7.4; Caco-2, basolateral to apical, 1 μM, 2 hours, 37° C.; read-out: Papp B-A
Give the quantity in ×10⁻⁶ cm/s, number only.

# count of solved cases: 2
• C#CC[N+](C)(C)CCO.[Br-] [Compound J60] = 6.23
• C[N+](C)(CCO)CC1CC1.[Br-] [Compound 107] = 31.1

C#CC[N+](C)(CF)CCO[C@@H]1O[C@H](COC(C)=O)[C@@H](OC(C)=O)[C@H](OC(C)=O)[C@H]1OC(C)=O (stereo partly drawn) [Compound 77] yielded Papp B→A at 2 h, 1 µM of 0.337
